Data provenance is patent US20260242478A1.

target: T1, Anti-PSMA Fab (SEQ ID NOs: 19, 20); assay: phage binding ELISA; biotinylated PSMA Fab on neutravidin plate, clonal phage supernatant, anti-M13 HRP detection;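 further: wells were preincubated with blocking buffer either containing PSMA antigen or without it before crude phage supernatant was added, briefly incubated, then washed prior to detection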
T1 construct: also called 006 PSMA Fab
ENDPOINT: Anti-PSMA Fab (SEQ ID NOs: 19, 20) signal
A bare number is all that is needed in reply.

Example results:
VQIQCRPAWMCLGF (peptide, not shown: large carriers, Clonal phage supernatant) [Phage-1794] : 2.44
EPKWCVPRGLCNYD (peptide, not shown: large carriers, Clonal phage supernatant; also called Peptide-240) [Phage-1790] : 1.14

// sample YFVQCRPAWMCEGF (peptide, not shown: large carriers, Clonal phage supernatant) [Phage-1791] , its Anti-PSMA Fab (SEQ ID NOs: 19, 20) signal was 2.51

Anti-PSMA Fab (SEQ ID NOs: 19, 20) signal for AEVKCIPQWMCQGF (peptide, not shown: large carriers, Clonal phage supernatant) [Phage-1795] is 2.43
